This collection of values is drawn from ChEMBL document CHEMBL3804786.

Collected viability at 24 h, 10 ug/ml values appear next to each entry.
- test: Cytotoxicity against human Hep2 cells assessed as cell survival at 10 ug/ml after 24 hrs by trypan blue exclusion assay
- Assay type: cell-based, HEp-2
- experimental_parameters: read-out: Survival

smiles_entry | uom | viability at 24 h, 10 ug/ml
C/C(=N/N=C1\SCC(=O)N1Cc1ccc(F)cc1)c1ccccn1 | % | 42
O=C1CS/C(=N\N=C2CCCC2)N1Cc1ccc(Cl)cc1 | % | 47
C/C(=N/N=C1\SCC(=O)N1Cc1ccc(F)cc1)c1cccs1 | % | 52
C/C(=N\N=C1/SCC(=O)N1Cc1ccccc1F)c1cccs1 | % | 41
C/C(=N\N=C1/SCC(=O)N1Cc1cccc(F)c1)c1cccs1 | % | 0
C/C(=N\N=C1/SCC(=O)N1Cc1cccc(Cl)c1)c1cccs1 | % | 63
C/C(=N\N=C1/SCC(=O)N1Cc1cccc(Cl)c1)c1ccccn1 | % | 69
C/C(=N/N=C1\SCC(=O)N1Cc1ccccc1[N+](=O)[O-])c1cccs1 | % | 61
O=C1CS/C(=N\N=C2CCCC2)N1Cc1ccccc1F | % | 37
CC(C)=N/N=C1\SCC(=O)N1Cc1cccc([N+](=O)[O-])c1 | % | 0

* * *

Collected MIC values appear next to each entry.
- Test system: [Candida] sake
- test: Antifungal activity against Candida sake clinical isolate after 24 hrs by broth microdilution method
- Format: functional
- experimental_parameters: Fermentozyma sake
readout: MIC (µg/mL)

compound | readout | reported_value
CC(C)=N/N=C1\SCC(=O)N1Cc1ccccc1Cl | MIC | 2
CC(C)=N/N=C1\SCC(=O)N1Cc1cccc([N+](=O)[O-])c1 | MIC | 2
C/C(=N/N=C1\SCC(=O)N1Cc1ccc(Cl)cc1)c1ccccn1 | MIC | 8
Nc1ccc(CN2C(=O)CS/C2=N\N=C2CCCC2)cc1 | MIC | 256
C/C(=N\N=C1/SCC(=O)N1Cc1ccccc1F)c1cccs1 | MIC | 2
C/C(=N/N=C1\SCC(=O)N1Cc1ccc(N)cc1)c1ccccn1 | MIC | 2
Clc1ccc(COC(Cn2ccnc2)c2ccc(Cl)cc2Cl)c(Cl)c1 (stereo not drawn) [MICONAZOLE] | MIC | 2
CC(C)=N/N=C1\SCC(=O)N1Cc1ccc(F)cc1 | MIC | 8
C/C(=N/N=C1\SCC(=O)N1Cc1ccccc1[N+](=O)[O-])c1cccs1 | MIC | 2
CC(C)=N/N=C1\SCC(=O)N1Cc1cccc(Cl)c1 | MIC | 4
Clc1ccccc1C(c1ccccc1)(c1ccccc1)n1ccnc1 [CLOTRIMAZOLE] | MIC | 2
CC(C)=N/N=C1\SCC(=O)N1Cc1cccc(F)c1 | MIC | 8
O=C1CS/C(=N\N=C2CCCC2)N1Cc1ccc(Cl)cc1 | MIC | 4
O=C1CS/C(=N\N=C2CCCC2)N1Cc1ccccc1[N+](=O)[O-] | MIC | 4
CC(C)=N/N=C1\SCC(=O)N1Cc1ccc(Cl)cc1 | MIC | 4
O=C1CS/C(=N\N=C2CCCC2)N1Cc1cccc(F)c1 | MIC | 8
C/C(=N/N=C1\SCC(=O)N1Cc1ccccc1[N+](=O)[O-])c1ccccn1 | MIC | 2
C/C(=N/N=C1\SCC(=O)N1Cc1ccc(N)cc1)c1cccs1 | MIC | 2
O=C1CS/C(=N\N=C2CCCC2)N1Cc1cccc(Cl)c1 | MIC | 2
Clc1ccc(C(Cn2ccnc2)OCc2ccsc2Cl)c(Cl)c1 (stereo not drawn) [TIOCONAZOLE] | MIC | 4
O=C1CS/C(=N\N=C2CCCC2)N1Cc1cccc([N+](=O)[O-])c1 | MIC | 2
C/C(=N\N=C1/SCC(=O)N1Cc1ccccc1Cl)c1ccccn1 | MIC | 4
C/C(=N\N=C1/SCC(=O)N1Cc1cccc([N+](=O)[O-])c1)c1cccs1 | MIC | 4

* * *

- test: Antioxidant activity of the compound after 90 mins by phosphomolybdenum assay
- Assay type: physicochemical
pEC50: −log10 of the molar value.
Collected pEC50 values appear next to each entry.
readout: pEC50

molecule | readout | reported_value
CC(C)=N/N=C1\SCC(=O)N1Cc1cccc([N+](=O)[O-])c1 | pEC50 | 2.91
CC(C)=N/N=C1\SCC(=O)N1Cc1ccc(N)cc1 | pEC50 | 2.92
Cc1c(C)c2c(c(C)c1O)CCC(C)(C(=O)O)O2 (configuration not stated) | pEC50 | 2.95
O=C1CS/C(=N\N=C2CCCC2)N1Cc1ccc(Cl)cc1 | pEC50 | 3.25
C/C(=N\N=C1/SCC(=O)N1Cc1cccc(Cl)c1)c1ccccn1 | pEC50 | 2.69
O=C1CS/C(=N\N=C2CCCC2)N1Cc1ccccc1F | pEC50 | 3.15
C/C(=N/N=C1\SCC(=O)N1Cc1ccc(F)cc1)c1cccs1 | pEC50 | 2.86
C/C(=N/N=C1\SCC(=O)N1Cc1ccccc1[N+](=O)[O-])c1cccs1 | pEC50 | 2.95
C/C(=N\N=C1/SCC(=O)N1Cc1cccc(Cl)c1)c1cccs1 | pEC50 | 2.94
C/C(=N\N=C1/SCC(=O)N1Cc1cccc(F)c1)c1cccs1 | pEC50 | 2.87
C/C(=N/N=C1\SCC(=O)N1Cc1ccc(F)cc1)c1ccccn1 | pEC50 | 2.94
C/C(=N\N=C1/SCC(=O)N1Cc1ccccc1F)c1cccs1 | pEC50 | 2.90

* * *

- test: Cytotoxicity against human Hep2 cells assessed as cell survival at 5 ug/ml after 24 hrs by trypan blue exclusion assay
- Assay type: cell-based, HEp-2
- experimental_parameters: read-out: Survival
Could you mark each record 1 if its viability at 24 h, 5 ug/ml falls strictly under 70%, and -1 if it equals or exceeds it?

smiles_entry | category
CC(C)=N/N=C1\SCC(=O)N1Cc1cccc([N+](=O)[O-])c1 | 1
C/C(=N\N=C1/SCC(=O)N1Cc1cccc(F)c1)c1cccs1 | 1
O=C1CS/C(=N\N=C2CCCC2)N1Cc1ccccc1F | 1
C/C(=N\N=C1/SCC(=O)N1Cc1ccccc1F)c1cccs1 | 1
O=C1CS/C(=N\N=C2CCCC2)N1Cc1ccc(Cl)cc1 | 1
C/C(=N/N=C1\SCC(=O)N1Cc1ccccc1[N+](=O)[O-])c1cccs1 | -1
C/C(=N\N=C1/SCC(=O)N1Cc1cccc(Cl)c1)c1ccccn1 | -1
C/C(=N\N=C1/SCC(=O)N1Cc1cccc(Cl)c1)c1cccs1 | -1

* * *

Collected MIC values appear next to each entry.
- Tested on: Proteus mirabilis
- test: Antibacterial activity against Proteus mirabilis clinical isolate after 18 to 22 hrs by broth microdilution method
- Type: functional
readout: MIC

smiles_entry | reported_value
O=C1CS/C(=N\N=C2CCCC2)N1Cc1cccc(F)c1 | > 256 µg/mL
CC(C)=N/N=C1\SCC(=O)N1Cc1ccc(N)cc1 | > 256 µg/mL
C/C(=N/N=C1\SCC(=O)N1Cc1ccc(N)cc1)c1ccccn1 | > 256 µg/mL
C/C(=N\N=C1/SCC(=O)N1Cc1cccc([N+](=O)[O-])c1)c1ccccn1 | > 256 µg/mL
C/C(=N\N=C1/SCC(=O)N1Cc1cccc(Cl)c1)c1ccccn1 | > 256 µg/mL
C/C(=N\N=C1/SCC(=O)N1Cc1ccccc1F)c1cccs1 | > 256 µg/mL

* * *

- Test system: Pichia kudriavzevii
- test: Antifungal activity against Candida krusei clinical isolate after 24 hrs by broth microdilution method
- Type: functional
Collected MIC values appear next to each entry.

molecule | target_or_test_system | MIC (µg/mL)
CC(C)=N/N=C1\SCC(=O)N1Cc1cccc(F)c1 | Pichia kudriavzevii | 4
CC(C)=N/N=C1\SCC(=O)N1Cc1cccc(Cl)c1 | Pichia kudriavzevii | 2
CC(C)=N/N=C1\SCC(=O)N1Cc1ccc(N)cc1 | Pichia kudriavzevii | 2
C[C@@H]1[C@H](O)[C@@H](C)/C=C/C=C/C=C/C=C/C=C/C=C/C=C/[C@H](O[C@@H]2O[C@H](C)[C@@H](O)[C@H](N)[C@@H]2O)C[C@@H]2O[C@](O)(C[C@@H](O)C[C@@H](O)[C@H](O)CC[C@@H](O)C[C@@H](O)CC(=O)O[C@H]1C)C[C@H](O)[C@H]2C(=O)O | Pichia kudriavzevii | 4
C/C(=N\N=C1/SCC(=O)N1Cc1ccccc1Cl)c1ccccn1 | Pichia kudriavzevii | 4
O=C1CS/C(=N\N=C2CCCC2)N1Cc1ccccc1Cl | Pichia kudriavzevii | 8
O=C1CS/C(=N\N=C2CCCC2)N1Cc1cccc([N+](=O)[O-])c1 | Pichia kudriavzevii | 8
Clc1ccc(C(Cn2ccnc2)OCc2ccsc2Cl)c(Cl)c1 (stereo not given) | Pichia kudriavzevii | 8
OC(Cn1cncn1)(Cn1cncn1)c1ccc(F)cc1F | Pichia kudriavzevii | 2
C/C(=N/N=C1\SCC(=O)N1Cc1ccccc1[N+](=O)[O-])c1ccccn1 | Pichia kudriavzevii | 4

* * *

- System: Staphylococcus warneri
- test: Antibacterial activity against Staphylococcus warneri clinical isolate after 18 to 22 hrs by broth microdilution method
- Assay type: functional
Collected MIC values appear next to each entry.
readout: MIC

compound | target_or_test_system | reported_value
C/C(=N/N=C1\SCC(=O)N1Cc1ccc(F)cc1)c1cccs1 | Staphylococcus warneri | > 256 µg/mL
CC(C)=N/N=C1\SCC(=O)N1Cc1ccc(Cl)cc1 | Staphylococcus warneri | > 256 µg/mL
O=C1CS/C(=N\N=C2CCCC2)N1Cc1cccc(Cl)c1 | Staphylococcus warneri | > 256 µg/mL
O=C1CS/C(=N\N=C2CCCC2)N1Cc1ccccc1[N+](=O)[O-] | Staphylococcus warneri | > 256 µg/mL
C/C(=N\N=C1/SCC(=O)N1Cc1cccc(Cl)c1)c1cccs1 | Staphylococcus warneri | > 256 µg/mL
C/C(=N/N=C1\SCC(=O)N1Cc1ccc(F)cc1)c1ccccn1 | Staphylococcus warneri | > 256 µg/mL
C/C(=N\N=C1/SCC(=O)N1Cc1cccc([N+](=O)[O-])c1)c1cccs1 | Staphylococcus warneri | > 256 µg/mL
CC(C)(O/N=C(\C(=O)N[C@@H]1C(=O)N2C(C(=O)[O-])=C(C[n+]3ccccc3)CS[C@H]12)c1csc(N)n1)C(=O)O [CEFTAZIDIME] | Staphylococcus warneri | 4 µg/mL
O=C1CS/C(=N\N=C2CCCC2)N1Cc1ccccc1Cl | Staphylococcus warneri | > 256 µg/mL
C/C(=N\N=C1/SCC(=O)N1Cc1ccccc1Cl)c1ccccn1 | Staphylococcus warneri | > 256 µg/mL
C/C(=N/N=C1\SCC(=O)N1Cc1ccccc1[N+](=O)[O-])c1cccs1 | Staphylococcus warneri | > 256 µg/mL
O=C1CS/C(=N\N=C2CCCC2)N1Cc1cccc([N+](=O)[O-])c1 | Staphylococcus warneri | > 256 µg/mL
CC(C)=N/N=C1\SCC(=O)N1Cc1cccc(F)c1 | Staphylococcus warneri | > 256 µg/mL
C/C(=N\N=C1/SCC(=O)N1Cc1cccc([N+](=O)[O-])c1)c1ccccn1 | Staphylococcus warneri | > 256 µg/mL
C/C(=N\N=C1/SCC(=O)N1Cc1ccccc1F)c1cccs1 | Staphylococcus warneri | > 256 µg/mL
O=C1CS/C(=N\N=C2CCCC2)N1Cc1ccccc1F | Staphylococcus warneri | > 256 µg/mL
C/C(=N/N=C1\SCC(=O)N1Cc1ccc(Cl)cc1)c1ccccn1 | Staphylococcus warneri | > 256 µg/mL
Nc1ccc(CN2C(=O)CS/C2=N\N=C2CCCC2)cc1 | Staphylococcus warneri | > 256 µg/mL
C/C(=N\N=C1/SCC(=O)N1Cc1cccc(Cl)c1)c1ccccn1 | Staphylococcus warneri | > 256 µg/mL
C/C(=N/N=C1\SCC(=O)N1Cc1ccccc1[N+](=O)[O-])c1ccccn1 | Staphylococcus warneri | > 256 µg/mL
CC(C)=N/N=C1\SCC(=O)N1Cc1ccccc1F | Staphylococcus warneri | > 256 µg/mL
CC(C)=N/N=C1\SCC(=O)N1Cc1ccc(N)cc1 | Staphylococcus warneri | > 256 µg/mL
